Target: OGG1 (Homo sapiens (Human), UniProt O15527)
Sequence (O15527 whole entry): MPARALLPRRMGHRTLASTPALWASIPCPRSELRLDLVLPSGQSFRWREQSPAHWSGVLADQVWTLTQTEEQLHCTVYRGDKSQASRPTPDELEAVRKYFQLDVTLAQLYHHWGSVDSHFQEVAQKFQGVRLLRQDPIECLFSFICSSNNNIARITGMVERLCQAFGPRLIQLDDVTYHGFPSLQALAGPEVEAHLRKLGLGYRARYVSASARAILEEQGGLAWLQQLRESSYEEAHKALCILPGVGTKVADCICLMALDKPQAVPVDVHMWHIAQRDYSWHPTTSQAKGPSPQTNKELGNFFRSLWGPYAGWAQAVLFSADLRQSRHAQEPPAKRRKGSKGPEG
quantity: IC50 (µM)

{"compound": "COc1ncc(NC(=O)[C@H]2CC[C@@H](n3c(=O)[nH]c4c(F)cccc43)CC2)cc1C", "unit-spec": "µM", "IC50": 0.556}

[a] O=C(Nc1ccc(Cl)c(Cl)c1)N1CCC(n2c(=O)[nH]c3c(-c4ccc(CO)nc4)cccc32)CC1
[b] COc1ccc(NC(=O)[C@H]2CC[C@@H](n3c(=O)[nH]c4c(OC)cccc43)CC2)cc1C
[c] COc1cc(NC(=O)[C@H]2CC[C@@H](n3c(=O)[nH]c4c(C(=O)N5CCCC5C(N)=O)cccc43)CC2)ccc1C (stereo partly shown)
Exam item: list the entries in increasing order of IC50. Please write the labels in the order that was asked for.
b, c, a
